From: patent US20190106487A1

Target: T1, human IL-1RAcP on 293T/17-FR cells (human, UniProt Q9NPH3 21-570)
T1 sequence (looked up): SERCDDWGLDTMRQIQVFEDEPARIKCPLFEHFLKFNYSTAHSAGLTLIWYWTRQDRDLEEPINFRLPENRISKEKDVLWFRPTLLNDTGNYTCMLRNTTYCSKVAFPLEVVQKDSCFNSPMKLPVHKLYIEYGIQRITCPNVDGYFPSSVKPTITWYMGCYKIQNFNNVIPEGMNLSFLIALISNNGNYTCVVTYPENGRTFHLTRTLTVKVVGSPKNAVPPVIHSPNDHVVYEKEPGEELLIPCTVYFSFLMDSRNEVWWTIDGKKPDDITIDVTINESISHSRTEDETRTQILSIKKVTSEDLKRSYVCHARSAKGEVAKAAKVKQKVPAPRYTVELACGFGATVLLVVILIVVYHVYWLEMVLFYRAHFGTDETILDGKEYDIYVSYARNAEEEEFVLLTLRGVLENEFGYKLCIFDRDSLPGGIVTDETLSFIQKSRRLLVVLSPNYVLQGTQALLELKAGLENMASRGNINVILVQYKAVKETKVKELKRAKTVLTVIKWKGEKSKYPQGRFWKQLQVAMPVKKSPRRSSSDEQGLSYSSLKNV
Assay: cell-based or functional assay
Catalogue of functional reporter gene assay (% inhibition), 0.2 µg/mL mAb readings, one per entry.
Respond with the bare value in %.

Some binders with recorded functional reporter gene assay (% inhibition), 0.2 µg/mL mAb:
binder	reported.result
P013.S.01.B.D04 (antibody, V domains shown, rabbit monoclonal antibody; also called P013.A.00088.B09) VH: QEQLKESGGRLVTPGGSLTLTCTVSGFSLSIYAMGWFRQAPGKGLEWIGDIYPGSDSTWYASWAKGRFTISKTSTTVDLKITSPTTEDTATYFCAREIDAGYVGYGFDLWGQGTLVTVSS VL: AQALTQTPSSVSAAVGGTVTINCQSSQSVYSDYLAWYQQKPGQSPKLLIYKASKLASGVPSRFKGSGSGTEFTLTISGVQSDDAATYYCQATYYSVGWYRAFGGGTEVVVK	67
P013.S.01.B.F04 (antibody, V domains shown, rabbit monoclonal antibody; also called P013.A.00133.A12) VH: LEQSGGGAEGGLVKPGGSLELCCKASGFSLSTSYWRCWVRQAPGKGLEWIGCIYAGSSDATYYANWVNGRFTLSRDIDQSTGCLQLNSLTAADTAMYYCASGVGFGYFNLWGQGTLVTVSS VL: ALVMTQTPSPVSAAVGGTVTINCQASEDIYSNLAWFQQKPGQPPKLLIYDASTLASGVPSRFSGSGSGTEFTLTISGLQSDDAATYYCLGVYTHISADNAFGGGTEVVVK	58

// P013.S.02.B.B01 (antibody, V domains shown, rabbit monoclonal antibody; also called P013.A.00088.A11) VH: QSLEESGGRLVTPGTPLTLTCTVSGFSLSGYAMSWVRQAPGKGLEWIGIIYAGSGGTYYASWVKGRFTISKTSTTVDLKITSLTTEDTATYFCARAVPDDSAGKKLWGQGTLVTVSS VL: DIVMTQTPASVEAAVGGTITINCQASENIYSSLAWYQQKPGQPPKLLIYDASTLASGVSSRFKGSGSGTQFTLTISGVQSDDAATYYCQSYYCSVSSSCGYGFGGGTEVVVK : functional reporter gene assay (% inhibition), 0.2 µg/mL mAb value = 39
